Measured gG2 mAb binding to indicated antigen on solid phase: HBcAg, listed per entry for reference.
# measured.target: HBcAg (Hepatitis B virus genotype D subtype ayw)
# Sequence (P03146 whole entry, the tested form may be a part): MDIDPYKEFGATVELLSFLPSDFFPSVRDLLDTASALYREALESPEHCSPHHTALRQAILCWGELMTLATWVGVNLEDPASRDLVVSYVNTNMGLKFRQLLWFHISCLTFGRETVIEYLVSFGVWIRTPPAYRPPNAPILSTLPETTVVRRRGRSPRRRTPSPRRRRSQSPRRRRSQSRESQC
# condition.description: fusion peptide in solution 20 μg/well
assay.readout: gG2 mAb binding to indicated antigen on solid phase: HBcAg

>  <sequence.content>
KLSCKASGYIFTSRGGPEEFE [SEQ. ID. No. 72]

>  <result.number>
0.016

$$$$
>  <sequence.content>
VKLSCKASGYIFTSHRGGPEE [SEQ. ID. No. 74]

>  <result.number>
1.462

$$$$
>  <sequence.content>
VKLSCKASGYIFTSGGPEEFE [SEQ. ID. No. 76]

>  <result.number>
0.025

$$$$
>  <sequence.content>
KLSCKASGYIFTSHRGGPEEF [SEQ. ID. No. 71]

>  <result.number>
0.550

$$$$
>  <sequence.content>
VKLSCKASGYIFTSEHRGGPE [SEQ. ID. No. 73]

>  <result.number>
0.038

$$$$
>  <sequence.content>
KLSCKASGYIFTSEHRGGPEE [SEQ. ID. No. 70]

>  <result.number>
0.020

$$$$
>  <sequence.content>
QQKPGQPPKLLIKYASNLES (Synthetically prepared amino acid sequence) [Peptide 16]

>  <result.number>
0.038

$$$$
>  <sequence.content>
VKLSCKASGYIFTSHRGGPEE [SEQ. ID. No. 75]

>  <result.number>
0.037

$$$$

###

Let's look at some sequences and their measured Std. Deviation from the mean.
# measured.target: HBcAg (Hepatitis B virus genotype D subtype ayw)
# condition.description: deviation of the OD from the mean OD of all peptides
assay.readout: Std. Deviation from the mean

>  <sequence.content>
PSPRRRRSQSPRRRRSQSRESQC [SEQ. ID. No. 111]

>  <result.number>
−0.734

$$$$
>  <sequence.content>
GRETVIEYLVSFGVWIRTPP [SEQ. ID. No. 106]

>  <result.number>
−0.423

$$$$
>  <sequence.content>
LDTASALYREALESPEHCSP [SEQ. ID. No. 98]

>  <result.number>
1.103

$$$$

###

# measured.target: HBcAg (Hepatitis B virus genotype D subtype ayw)
# condition.description: HBcAg added at 5 μg/ml
# From the text: One approach to rational drug design involves sequential amino acid deletion of a known binding partner starting from either the amino or carboxy termini. Amino-terminal deletions of the binding partners of SEQ. ID. Nos. 5 and 17 were made and these peptide fragments were joined to a support and analyzed for the ability to bind HBcAg. […] ID. […] The amino-terminal deletions of the peptide of SEQ. ID. […] The amino-terminal deletion products of the peptide of SEQ. ID. […] ID. […]
// OD at 490 nm, HBcAg binding to support-bound amino terminal deletion peptides lookup, one value per entry
assay.readout: OD at 490 nm, HBcAg binding to support-bound amino terminal deletion peptides

>  <substance>
GYIFTS [SEQ. ID. No. 52]

>  <measured.target>
HBcAg (Hepatitis B virus genotype D subtype ayw)

>  <result.number>
0.414

$$$$
>  <substance>
QSVSTSSYSYMHWY [SEQ. ID. No. 58]

>  <measured.target>
HBcAg (Hepatitis B virus genotype D subtype ayw)

>  <result.number>
0.282

$$$$
>  <substance>
STSSYSYMHWY [SEQ. ID. No. 61]

>  <measured.target>
HBcAg (Hepatitis B virus genotype D subtype ayw)

>  <result.number>
0.372

$$$$
>  <substance>
KPGASVKLSCKASGYIFTS [SEQ. ID. No. 39]

>  <measured.target>
HBcAg (Hepatitis B virus genotype D subtype ayw)

>  <result.number>
1.337

$$$$
>  <substance>
CRASQSVSTSSYSYMHWY [SEQ. ID. No. 54]

>  <measured.target>
HBcAg (Hepatitis B virus genotype D subtype ayw)

>  <result.number>
1.415

$$$$
>  <substance>
TSSYSYMHWY [SEQ. ID. No. 62]

>  <measured.target>
HBcAg (Hepatitis B virus genotype D subtype ayw)

>  <result.number>
0.317

$$$$
>  <substance>
SYMHWY [SEQ. ID. No. 65]

>  <measured.target>
HBcAg (Hepatitis B virus genotype D subtype ayw)

>  <result.number>
0.218

$$$$
>  <substance>
SSYSYMHWY [SEQ. ID. No. 63]

>  <measured.target>
HBcAg (Hepatitis B virus genotype D subtype ayw)

>  <result.number>
0.311

$$$$
>  <substance>
RASQSVSTSSYSYMHWY [SEQ. ID. No. 55]

>  <measured.target>
HBcAg (Hepatitis B virus genotype D subtype ayw)

>  <result.number>
0.429

$$$$
>  <substance>
ASVKLSCKASGYIFTS [SEQ. ID. No. 42]

>  <measured.target>
HBcAg (Hepatitis B virus genotype D subtype ayw)

>  <result.number>
3.219

$$$$
>  <substance>
ASGYIFTS [SEQ. ID. No. 50]

>  <measured.target>
HBcAg (Hepatitis B virus genotype D subtype ayw)

>  <result.number>
0.407

$$$$
>  <substance>
VSTSSYSYMHWY [SEQ. ID. No. 60]

>  <measured.target>
HBcAg (Hepatitis B virus genotype D subtype ayw)

>  <result.number>
0.369

$$$$
>  <substance>
GASVKLSCKASGYIFTS [SEQ. ID. No. 41]

>  <measured.target>
HBcAg (Hepatitis B virus genotype D subtype ayw)

>  <result.number>
2.863

$$$$
>  <substance>
VKLSCKASGYIFTS [SEQ. ID. No. 44]

>  <measured.target>
HBcAg (Hepatitis B virus genotype D subtype ayw)

>  <result.number>
3.703

$$$$
